# assay system: Histamine H3 receptor (Mus musculus, UniProt P58406)
# Sequence (P58406 whole entry): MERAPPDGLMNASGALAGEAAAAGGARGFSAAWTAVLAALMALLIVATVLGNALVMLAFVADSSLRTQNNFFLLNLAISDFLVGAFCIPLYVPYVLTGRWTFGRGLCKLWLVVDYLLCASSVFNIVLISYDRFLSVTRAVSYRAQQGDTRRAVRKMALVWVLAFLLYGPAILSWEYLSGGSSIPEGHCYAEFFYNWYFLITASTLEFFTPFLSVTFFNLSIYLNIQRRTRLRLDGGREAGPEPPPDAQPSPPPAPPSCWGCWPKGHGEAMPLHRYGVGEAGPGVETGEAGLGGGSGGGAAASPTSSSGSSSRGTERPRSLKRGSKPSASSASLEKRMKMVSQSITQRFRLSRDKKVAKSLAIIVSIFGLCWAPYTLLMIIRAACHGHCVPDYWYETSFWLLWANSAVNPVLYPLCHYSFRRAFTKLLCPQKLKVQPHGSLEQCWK
# assay: Displacement of [3H]N-alpha-methylhistamine from mouse recombinant histamine H3 receptor
endpoint name: Ki (nM)
Kindly answer with a numeric value in nM, unit omitted.

Recorded Ki, per entry:
Cc1nc2cccc(F)c2c(=O)n1-c1ccc(OC2CCN(C3CCC3)CC2)cc1 : 8.4
Cc1nc2cccc(C(F)(F)F)c2c(=O)n1-c1ccc(OC2CCN(C3CCC3)CC2)cc1 : 3.9

Q: Fill in the blank: the reported Ki of "Cc1cccc2nc(C)n(-c3ccc(OC4CCN(C5CCC5)CC4)cc3)c(=O)c12" is ____.
A: 3.9

----------
# assay: Oral bioavailability in rhesus monkey at 1 mg/kg
# Assay type: ADME, organism-based, Macaca mulatta
# condition notes: in vivo
endpoint name: bioavailability (%)
Kindly answer with a numeric value in %, unit omitted.

Q: Fill in the blank: the reported bioavailability of "Cc1nc2cccc(C(F)(F)F)c2c(=O)n1-c1ccc(OC2CCN(C3CCC3)CC2)cc1" is ____.
A: 11
